assay: basal MM1S mitochondrial membrane potential changes, profiling panel, cell-based, JC-1 fluorescence, 24 h, 100 nL compound (AID 1170); conditions: higher = more signal; note: test concentration not given here
value-type: z-score

>>> result_value("COC(=O)C(CC#Cc1ccc2c(c1)[C@]1(C(=O)N2)[C@H](c2ccc(O)cc2)N2[C@H](c3ccccc3)[C@H](c3ccccc3)OC(=O)[C@H]2[C@@H]1C(=O)N1CCCCCCC1)C(=O)OC")
-0.158
>>> result_value("COC(=O)C(CC#Cc1ccc2c(c1)[C@]1(C(=O)N2)[C@H](C(=O)Nc2nc3ccccc3s2)[C@H]2C(=O)O[C@H](c3ccccc3)[C@H](c3ccccc3)N2[C@@H]1c1ccc(OCCO)cc1)C(=O)OC")
-0.693
>>> result_value("COC(=O)[C@@]1(Cc2ccccc2CN=[N+]=[N-])N=C(c2ccc(OCCCO)cc2)O[C@H]1c1ccccc1CN=[N+]=[N-]")
-2.09
>>> result_value("C=C[C@@H](C)[C@@H](OC(=O)Nc1ccc(SC)cc1)c1ccc(OCCO)cc1")
-0.434
>>> result_value("NCCCCCNC(=O)[C@@H]1C[C@@H]2C(=O)N3CCC[C@H]3C(=O)N2[C@@H]1c1ccc(O)cc1")
0.73
>>> result_value("COC(=O)[C@@]1(Cc2ccc(F)cc2)[C@H]2c3cc(C(=O)N(C)C)n(Cc4c(CO)[nH]cc(C)c4=O)c3C[C@H]2CN1C(=O)c1ccccc1")
-0.895
>>> result_value("NC(=O)NCC#Cc1ccc2c(c1)[C@]1(C(=O)N2)[C@H](C(=O)N2CCN(c3ncccn3)CC2)[C@H]2C(=O)O[C@H](c3ccccc3)[C@H](c3ccccc3)N2[C@@H]1c1ccc(OCCO)cc1")
-0.445
>>> result_value("COc1ccc(C#Cc2ccc3c(c2)[C@]2(C(=O)N3)[C@H](C(=O)N3CCCCCCC3)[C@H]3C(=O)O[C@H](c4ccccc4)[C@H](c4ccccc4)N3[C@@H]2c2ccc(O)cc2)cc1")
-0.191
>>> result_value("COc1cc(C(O)C2C=CC3C(=O)N(Cc4ccccc4)C(=O)C3N2n2cnnc2)cc(OC)c1OC (stereo not drawn)")
0.588
>>> result_value("COC(=O)[C@@]1(Cc2ccccc2CN=[N+]=[N-])N=C(c2ccc(OCCCO)cc2)O[C@H]1c1ccccc1")
-2.53
>>> result_value("COCCOC(=O)N1C(=O)[C@@]2(c3cc(C#CCC(C(=O)OC)C(=O)OC)ccc31)[C@H](c1ccc(OCCO)cc1)N1[C@H](c3ccccc3)[C@H](c3ccccc3)OC(=O)[C@H]1[C@@H]2C(=O)Nc1nc2ccccc2s1")
-1.29
>>> result_value("C=CCC(OC(C)=O)[C@@H]1[C@@H](N(Cc2cc3ccccc3o2)C(=O)c2ccc(-c3ccccc3)cc2)c2cc(OCCCO)ccc2N1C(=O)Cc1ccc(OC)cc1 (stereo partly drawn)")
0.239
>>> result_value("COC(=O)c1c2oc(c1C(=O)OC)C(=O)N1CCC[C@H]1Cn1nncc1CN(Cc1ccccc1)C(=O)N[C@H](CO)CC2")
-0.882
